Target: SLK (Homo sapiens)
Sequence (Q9H2G2 whole entry): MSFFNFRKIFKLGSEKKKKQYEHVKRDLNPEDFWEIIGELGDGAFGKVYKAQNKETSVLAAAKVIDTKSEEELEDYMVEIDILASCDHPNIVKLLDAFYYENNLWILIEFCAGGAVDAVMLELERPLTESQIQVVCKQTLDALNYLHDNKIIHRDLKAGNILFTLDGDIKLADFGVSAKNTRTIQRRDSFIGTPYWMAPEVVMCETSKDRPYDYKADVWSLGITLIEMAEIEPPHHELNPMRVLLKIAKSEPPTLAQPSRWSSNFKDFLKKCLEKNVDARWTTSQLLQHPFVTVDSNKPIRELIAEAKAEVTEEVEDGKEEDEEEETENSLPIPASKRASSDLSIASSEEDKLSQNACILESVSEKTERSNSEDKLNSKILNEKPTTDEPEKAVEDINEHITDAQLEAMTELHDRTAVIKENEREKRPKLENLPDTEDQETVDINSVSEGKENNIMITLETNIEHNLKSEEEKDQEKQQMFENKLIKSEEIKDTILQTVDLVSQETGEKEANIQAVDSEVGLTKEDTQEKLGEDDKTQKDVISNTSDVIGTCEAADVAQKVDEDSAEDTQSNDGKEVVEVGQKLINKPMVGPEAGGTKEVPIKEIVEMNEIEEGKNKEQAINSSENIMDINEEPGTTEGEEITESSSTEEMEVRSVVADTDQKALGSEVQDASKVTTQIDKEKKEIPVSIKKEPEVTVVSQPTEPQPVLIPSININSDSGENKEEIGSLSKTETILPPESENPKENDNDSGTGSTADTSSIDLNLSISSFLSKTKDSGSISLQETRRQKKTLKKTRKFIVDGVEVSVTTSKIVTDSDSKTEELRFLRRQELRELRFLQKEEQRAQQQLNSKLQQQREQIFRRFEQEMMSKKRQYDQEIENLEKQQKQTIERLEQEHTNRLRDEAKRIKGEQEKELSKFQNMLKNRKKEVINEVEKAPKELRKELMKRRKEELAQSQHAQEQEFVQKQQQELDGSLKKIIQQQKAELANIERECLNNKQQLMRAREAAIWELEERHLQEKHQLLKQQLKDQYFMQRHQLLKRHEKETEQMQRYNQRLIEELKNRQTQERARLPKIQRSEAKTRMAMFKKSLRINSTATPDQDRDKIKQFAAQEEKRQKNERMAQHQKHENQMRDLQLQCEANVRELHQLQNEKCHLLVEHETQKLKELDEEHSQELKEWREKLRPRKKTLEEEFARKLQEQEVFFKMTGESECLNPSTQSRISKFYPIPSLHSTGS
Assay: biochemical
Design: species or system HEK293/K-562/placenta mixed human extract; Kinobeads chemoproteomic competition binding, quantified by TMT LC-MS/MS, dose response up to 20 uM
observed-property: IC50

## Task Any idea what IC50 came out for COc1ccccc1-c1n[nH]c2nc(N[C@H]3CC[C@H](NS(=O)(=O)CCC(F)(F)F)CC3)nc(OC)c12 on SLK (Homo sapiens)?
## Result ≥ 20 µM

----------
Molecular target: BMP2K (Homo sapiens, UniProt Q9NSY1)
Sequence (Q9NSY1 whole entry): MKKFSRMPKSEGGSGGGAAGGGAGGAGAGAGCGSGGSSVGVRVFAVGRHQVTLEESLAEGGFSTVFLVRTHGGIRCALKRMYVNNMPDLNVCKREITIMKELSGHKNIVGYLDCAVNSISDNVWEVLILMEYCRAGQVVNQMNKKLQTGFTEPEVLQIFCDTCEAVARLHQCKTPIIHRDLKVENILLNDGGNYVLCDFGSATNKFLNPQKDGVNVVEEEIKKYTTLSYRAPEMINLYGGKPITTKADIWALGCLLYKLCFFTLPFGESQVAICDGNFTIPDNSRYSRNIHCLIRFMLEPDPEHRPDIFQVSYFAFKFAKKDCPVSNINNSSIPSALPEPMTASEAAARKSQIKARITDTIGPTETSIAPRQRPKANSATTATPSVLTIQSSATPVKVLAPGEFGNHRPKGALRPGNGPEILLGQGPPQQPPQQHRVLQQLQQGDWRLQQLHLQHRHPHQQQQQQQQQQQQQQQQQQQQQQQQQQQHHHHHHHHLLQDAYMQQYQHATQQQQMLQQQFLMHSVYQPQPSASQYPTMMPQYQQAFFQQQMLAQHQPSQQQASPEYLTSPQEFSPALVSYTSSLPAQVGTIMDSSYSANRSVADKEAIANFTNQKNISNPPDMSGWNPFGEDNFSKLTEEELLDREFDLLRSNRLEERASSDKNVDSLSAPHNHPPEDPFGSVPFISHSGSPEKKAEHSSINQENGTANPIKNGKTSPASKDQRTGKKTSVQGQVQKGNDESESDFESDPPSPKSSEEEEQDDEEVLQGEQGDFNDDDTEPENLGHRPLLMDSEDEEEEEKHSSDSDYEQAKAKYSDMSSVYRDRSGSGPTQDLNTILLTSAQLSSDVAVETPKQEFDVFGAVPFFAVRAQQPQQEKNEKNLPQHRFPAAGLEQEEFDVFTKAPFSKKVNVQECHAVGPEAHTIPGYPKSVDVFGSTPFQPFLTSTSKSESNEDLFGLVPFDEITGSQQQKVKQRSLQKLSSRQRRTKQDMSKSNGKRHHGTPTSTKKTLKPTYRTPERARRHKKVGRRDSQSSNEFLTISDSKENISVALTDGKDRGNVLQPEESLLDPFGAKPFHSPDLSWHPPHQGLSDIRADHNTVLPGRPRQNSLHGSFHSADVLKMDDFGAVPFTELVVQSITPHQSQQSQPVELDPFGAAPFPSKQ
Test: biochemical
Parameters: species or system HEK293/K-562/placenta mixed human extract; Kinobeads chemoproteomic competition binding, quantified by TMT LC-MS/MS, dose response up to 20 uM
observed-property: IC50

## Task Which value of IC50 has been reported for COc1ccccc1-c1n[nH]c2nc(N[C@H]3CC[C@H](NS(=O)(=O)CCC(F)(F)F)CC3)nc(OC)c12 [compound 31] in the records?
## Result ≥ 20 µM
